Exercise: state measured Neutralizing activity IC50 for each of the binders provided.
Target: baboon EL (baboon)
Test: cell-based or functional assay
Give the number; nM is assumed, so skip it.

## Input Determine its reported Neutralizing activity IC50: h16F6-S4 (antibody, V domains shown) VH: QVQLVQSGAEVKKPGASVKVSCKASGYTFTTYWIAWVRQAPGQGLEWMGEILPGSAKTKYNKKFKGRVTMTRDTSTSTVYMELSSLRSEDTAVYYCAVYDYGADYWGQGTTVTVSS VL: DIQMTQSPSSLSASVGDRVTITCKASQDVYTAVAWYQQKPGKSPKLLIYSASYRFTGVPSRFTGSGAGTDFTFTISSLQPEDFATYYCQQHYSIPRTFGGGTKVEIK
## Output 2.6

## Input Determine its reported Neutralizing activity IC50: h16F6-S2 (antibody, V domains shown) VH: QVQLVQSGAEVKKPGASVKVSCKASGYTFTTYWIAWVRQAPGQGLEWMGEILPGSAKTKYNKKFKGRVTMTRDTSTSTVYMELSSLRSEDTAVYYCAVYDYGADYWGQGTTVTVSS VL: DIQMTQSPSSLSASVGDRVTITCKASQDVYTAVAWYQQKPGKSPKLLIYSASYRFTGVPSRFSGSGAGTDFTLTISSLQPEDFATYYCQQHYSIPRTFGGGTKVEIK
## Output 3.3
